Reported Post-emergence action against LOLRI in % values for a set of compounds
- Test system: Lolium rigidum (LOLRI)
- TEST METHOD NOTES: Post-emergence herbicidal action against LOLRI
- Format: in vivo
- CONDITION SUMMARY: dosage 80 g/ha
Give the value in % but do not write % after it.

Field Post-emergence action against LOLRI in % (entry `COC(=O)[C@@H](C)Oc1nn(-c2ncccc2F)c(-c2ccc(F)nc2)c1C1CC1` ) reads 100

Field Post-emergence action against LOLRI in % (entry `CCOC(=O)COc1nn(-c2nc(F)ccc2F)c(-c2ccc(F)nc2)c1C1CC1` ) reads 80

Next:
Field Post-emergence action against LOLRI in % (entry `C[C@@H](Oc1nn(-c2ccccn2)c(-c2cncnc2)c1Cl)C(=O)O` ) reads 90

Field Post-emergence action against LOLRI in % (entry `COC(=O)COc1nn(-c2nc(F)ccc2F)c(-c2ccc(F)nc2)c1C1CC1` ) reads 90

Field Post-emergence action against LOLRI in % (entry `COC(=O)[C@@H](C)Oc1nn(-c2nc(F)ccc2F)c(-c2cncc(F)c2)c1Br` ) reads 90

Field Post-emergence action against LOLRI in % (entry `O=C(COc1nn(-c2ncccc2F)c(-c2ccc(F)nc2)c1C1CC1)OCC1CCCC1` ) reads 90

Field Post-emergence action against LOLRI in % (entry `COC(=O)[C@@H](C)COC(=O)COc1nn(-c2ccccn2)c(-c2cncc(F)c2)c1Br` ) reads 80

Field Post-emergence action against LOLRI in % (entry `O=C(O)COc1nn(-c2nc(F)ccc2F)c(-c2cncc(F)c2)c1C1CC1` ) reads 80

Field Post-emergence action against LOLRI in % (entry `COC(=O)[C@@H](C)Oc1nn(-c2ccccn2)c(-c2cncc(F)c2)c1Cl` ) reads 100

Field Post-emergence action against LOLRI in % (entry `COC(=O)[C@@H](C)Oc1nn(-c2ncccc2F)c(-c2ccc(F)nc2)c1C(F)(F)F` ) reads 90

Field Post-emergence action against LOLRI in % (entry `O=C(COc1nn(-c2ncccc2F)c(-c2ccc(F)nc2)c1C1CC1)OCc1ccccc1` ) reads 90

Field Post-emergence action against LOLRI in % (entry `COC(=O)[C@@H](C)Oc1nn(-c2ncccc2F)c(-c2cncc(F)c2)c1C1CC1` ) reads 90

Field Post-emergence action against LOLRI in % (entry `COC(=O)CCOC(=O)[C@@H](C)Oc1nn(-c2ccccn2)c(-c2cncc(F)c2)c1Cl` ) reads 90

Field Post-emergence action against LOLRI in % (entry `CCOC(=O)COc1nn(-c2ccccn2)c(-c2ccnc(F)c2)c1Br` ) reads 80

Field Post-emergence action against LOLRI in % (entry `C[C@@H](Oc1nn(-c2ncccc2F)c(-c2ccc(F)nc2)c1C1CC1)C(=O)O` ) reads 90

Field Post-emergence action against LOLRI in % (entry `COC(=O)CCOC(=O)[C@@H](C)Oc1nn(-c2ccccn2)c(-c2ccc(F)nc2)c1Cl` ) reads 90

Field Post-emergence action against LOLRI in % (entry COC(=O)CCOC(=O)C(C)Oc1nn(-c2ccccn2)c(-c2ccc(F)nc2)c1C(F)(F)F (centres unmarked) ) reads 80

* * *

- Test system: Avena fatua (AVEFA)
- TEST METHOD NOTES: Post-emergence herbicidal action against AVEFA
- Type: in vivo
- CONDITION SUMMARY: 80 g/ha, visual rating about 3 weeks after treatment
VALUE TYPE: Post-emergence action against AVEFA in % (%)
Give the value in % but do not write % after it.

Example molecules with recorded Post-emergence action against AVEFA in %:
Field Post-emergence action against AVEFA in % (entry `O=C(O)COc1nn(-c2ncccc2F)c(-c2cncc(F)c2)c1C1CC1` ) reads 80

Field Post-emergence action against AVEFA in % (entry `COC(=O)[C@H](C)COC(=O)COc1nn(-c2ccccn2)c(-c2ccc(F)nc2)c1Br` ) reads 90

Field Post-emergence action against AVEFA in % (entry `COC(=O)CNC(=O)[C@@H](C)Oc1nn(-c2ccccn2)c(-c2ccc(F)nc2)c1Cl` ) reads 90

Field Post-emergence action against AVEFA in % (entry `CCOC(=O)COc1nn(-c2ncccc2F)c(-c2ccc(F)nc2)c1C(F)(F)F` ) reads 80

Field Post-emergence action against AVEFA in % (entry `COC(=O)COc1nn(-c2ncccc2F)c(-c2ccc(F)nc2)c1C1CC1` ) reads 100

Field Post-emergence action against AVEFA in % (entry CCOC(=O)C(C)Oc1nn(-c2ccccn2)c(-c2ccc(F)nc2)c1I (stereo not shown) ) reads 80

Field Post-emergence action against AVEFA in % (entry `CCCOC(=O)COc1nn(-c2ncccc2F)c(-c2ccc(F)nc2)c1C1CC1` ) reads 90

Field Post-emergence action against AVEFA in % (entry `CC(C)=NOC(=O)[C@@H](C)Oc1nn(-c2ncccc2F)c(-c2ccc(F)nc2)c1Br` ) reads 90

Field Post-emergence action against AVEFA in % (entry `O=C(COc1nn(-c2ncccc2F)c(-c2ccc(F)nc2)c1C1CC1)ON=C1CCCC1` ) reads 90

Now for another entry.
Field Post-emergence action against AVEFA in % (entry `COC(=O)[C@H](C)COC(=O)[C@@H](C)Oc1nn(-c2ccccn2)c(-c2ccc(F)nc2)c1Cl` ) reads 90

* * *

- Tested on: Oryza sativa (ORYSA)
- Assay type: in vivo
- CONDITION SUMMARY: pre-emergence, 80 g/ha, crop plant compatibility, in comparison to untreated controls
VALUE TYPE: Pre-emergence action against ORYSA in % (%)
Give the value in % but do not write % after it.

Field Pre-emergence action against ORYSA in % (entry CCOC(=O)COc1nn(-c2ncccc2C(F)(F)F)c(-c2ccc(F)nc2)c1Br [Example I-335] ) reads 0

Field Pre-emergence action against ORYSA in % (entry CCOC(=O)COc1nn(-c2cccc(C)n2)c(-c2ccc(F)nc2)c1Cl [Example I-352] ) reads 20

Field Pre-emergence action against ORYSA in % (entry COCCOC(=O)COc1nn(-c2ncccc2C(F)(F)F)c(-c2ccc(F)nc2)c1Br [Example I-378] ) reads 0

Next:
Field Pre-emergence action against ORYSA in % (entry COC(=O)CNC(=O)COc1nn(-c2ccccn2)c(-c2ccc(F)nc2)c1Cl [Example I-64] ) reads 20

* * *

- Test system: Setaria viridis (SETVI)
- TEST METHOD NOTES: Pre-emergence herbicidal action against SETVI
- Format: in vivo
- CONDITION SUMMARY: dosage 80 g/ha
- Source text: Seeds of monocotyledonous and dicotyledonous weed plants and crop plants are placed in plastic or organic planting pots and covered with soil. […] After about 3 weeks, the effect of the preparations is scored visually in comparison with untreated controls as percentages. […]
VALUE TYPE: Pre-emergence action against SETVI in % (%)
Give the value in % but do not write % after it.

Example compounds with recorded Pre-emergence action against SETVI in %:
Field Pre-emergence action against SETVI in % (entry CCOC(=O)COc1nn(-c2ccccn2)c(-c2ccc(F)nc2)c1Cl [Example I-100] ) reads 90

Field Pre-emergence action against SETVI in % (entry COC(=O)[C@H](C)COC(=O)COc1nn(-c2ccccn2)c(-c2cncc(F)c2)c1Cl [Example I-192] ) reads 90

Field Pre-emergence action against SETVI in % (entry COC(=O)COc1nn(-c2ncccc2F)c(-c2ccc(F)nc2)c1C1CC1 [Example I-42] ) reads 100

Field Pre-emergence action against SETVI in % (entry C[C@@H](Oc1nn(-c2ncccc2F)c(-c2ccc(F)nc2)c1Br)C(=O)O [Example I-10] ) reads 100

Field Pre-emergence action against SETVI in % (entry CCOC(=O)C(C)Oc1nn(-c2ccccn2)c(-c2ccc(F)nc2)c1I (stereo not shown) [Example I-101] ) reads 90

Now for another entry.
Field Pre-emergence action against SETVI in % (entry COC(=O)[C@@H](C)Oc1nn(-c2nc(F)ccc2F)c(-c2cncc(F)c2)c1Br [Example I-191] ) reads 80

* * *

- System: Polygonum convolvulus (POLCO)
- TEST METHOD NOTES: Post-emergence herbicidal action against POLCO
- Assay type: in vivo
- CONDITION SUMMARY: dosage 80 g/ha
VALUE TYPE: Post-emergence action against POLCO in % (%)
Give the value in % but do not write % after it.

Field Post-emergence action against POLCO in % (entry `COC(=O)CCOC(=O)[C@@H](C)Oc1nn(-c2ccccn2)c(-c2ccc(Cl)nc2)c1Br` ) reads 80

Field Post-emergence action against POLCO in % (entry `CCCOC(=O)COc1nn(-c2ncccc2F)c(-c2ccc(F)nc2)c1C1CC1` ) reads 80

Field Post-emergence action against POLCO in % (entry `C[C@@H](Oc1nn(-c2ccccn2)c(-c2cncc(F)c2)c1Br)C(=O)O` ) reads 80

Field Post-emergence action against POLCO in % (entry `COC(=O)CCOC(=O)[C@@H](C)Oc1nn(-c2ccccn2)c(-c2cncc(F)c2)c1Br` ) reads 90

Field Post-emergence action against POLCO in % (entry CC(NC(=O)[C@@H](C)Oc1nn(-c2ccccn2)c(-c2ccc(F)nc2)c1Cl)C(=O)O (stereo partly shown) ) reads 80

Next:
Field Post-emergence action against POLCO in % (entry `COCCOC(=O)COc1nn(-c2ccccn2)c(-c2ccc(F)nc2)c1Br` ) reads 80

Field Post-emergence action against POLCO in % (entry COC(=O)C(C)NC(=O)[C@@H](C)Oc1nn(-c2ccccn2)c(-c2ccc(F)nc2)c1Cl (stereo partly shown) ) reads 90

Field Post-emergence action against POLCO in % (entry `CCOC(=O)COc1nn(-c2cccnc2C)c(-c2cncc(F)c2)c1Br` ) reads 80

Field Post-emergence action against POLCO in % (entry `Cc1cccnc1-n1nc(OCC(=O)O)c(Cl)c1-c1cncc(F)c1` ) reads 80
